From: patent US12371454B2

Hi there, I'd appreciate the recorded pIC50 for every entry that follows.
System: Kras and SOS1 (biotin-tagged human Kras loaded with GDP, His-tagged human SOS1) (Homo sapiens, UniProt P01116, G12D)
Construct: made in house; host or cells: E. coli (stated for Kras only)
Sequence (P01116 1-188 isoform P01116-2 G12D): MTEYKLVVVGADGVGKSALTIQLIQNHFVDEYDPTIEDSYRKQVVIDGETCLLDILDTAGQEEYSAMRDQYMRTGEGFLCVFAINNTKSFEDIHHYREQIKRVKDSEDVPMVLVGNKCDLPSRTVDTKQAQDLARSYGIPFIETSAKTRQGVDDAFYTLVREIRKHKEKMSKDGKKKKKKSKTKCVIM
Experimental Protocol: Protein-protein interaction inhibition between Kras and SOS1 (KrasGl2D-SOS PPI) using AlphaScreen
Assay type: binding
Applied Conditions: AlphaScreen; biotin-tagged human Kras loaded with GDP, His-tagged human SOS1; read-out: KRAS G12D-SOS PPI IC50
Positions of bridges follow the written chain, without caps; N, C: chain ends. Non-standard residues stand in square brackets, D forms with d. Residues, ends and D or L forms follow the SMILES beside them. *: point of attachment. hPhe(3,5-F2-4-CF3) = N[C@@H](CCc1cc(F)c(C(F)(F)F)c(F)c1)C(=O)O; hPhe(3-Cl-4-CF3) = N[C@@H](CCc1ccc(C(F)(F)F)c(Cl)c1)C(=O)O; hPhe(3-F,4-CF3) = N[C@@H](CCc1ccc(C(F)(F)F)c(F)c1)C(=O)O; NMePhe(4-CF3) = CN[C@@H](Cc1ccc(C(F)(F)F)cc1)C(=O)O; NMeCha = CN[C@@H](CC1CCCCC1)C(=O)O; NMeChg = CN[C@H](C(=O)O)C1CCCCC1; NMeI = CC[C@H](C)[C@H](NC)C(=O)O; d(β3hL) = CC(C)C[C@@H](N)CC(=O)O; NMeD = CN[C@@H](CC(=O)O)C(=O)O; AllylGly = C=CC[C@H](N)C(=O)O; NMeL = CN[C@@H](CC(C)C)C(=O)O; d(β3hA) = C[C@@H](N)CC(=O)O; NMeA = CN[C@@H](C)C(=O)O; Piperidide = C1CCN(*)CC1; Pra = C#CC[C@H](N)C(=O)O; Ac5c = NC1(C(=O)O)CCCC1; Aze = O=C(O)[C@@H]1CCN1; Sar = CNCC(=O)O
Answers are plain numbers, as −log10 of the molar value.

# Compound, pIC50
records = [
    ("CC[C@H](C)[C@@H]1NC(=O)[C@H](CC(C)C)N(C)C(=O)C[C@@H](CC(C)C)NC(=O)[C@H]([C@@H](C)CC)N(C)C(=O)C2(CCCC2)NC(=O)[C@@H]2CCCN2C(=O)[C@H](CCc2cc(F)c(C(F)(F)F)c(F)c2)NC(=O)CN(C)C(=O)[C@H](Cc2ccc(C(F)(F)F)cc2)N(C)C(=O)[C@@H]2CCN2C(=O)[C@H](C)N(C)C1=O [Compound 1918] (cyclo([Ac5c][NMeI][d(β3hL)][NMeL]I[NMeA][Aze][NMePhe(4-CF3)][Sar][hPhe(3,5-F2-4-CF3)]P))", 6.55),
    ("C#CC[C@@H]1NC(=O)[C@H](CC(C)C)N(C)C(=O)C[C@@H](C)NC(=O)[C@H](CC(C)C)N(C)C(=O)C2(CCCC2)NC(=O)[C@@H]2CCCN2C(=O)[C@H](CCc2ccc(C(F)(F)F)c(F)c2)NC(=O)CN(C)C(=O)[C@H](CC2CCCCC2)N(C)C(=O)CN(C)C(=O)CN(C)C1=O [Compound 1533] (cyclo([Ac5c][NMeL][d(β3hA)][NMeL][Pra][Sar][Sar][NMeCha][Sar][hPhe(3-F,4-CF3)]P))", 7.17),
]

Could you now look at the following compound, please?
Specify reported pIC50 for the compound shown: C=CC[C@@H]1NC(=O)[C@H](CC(C)C)N(C)C(=O)C[C@@H](C(=O)N2CCCCC2)N(C)C(=O)[C@H](C2CCCCC2)N(C)C(=O)C2(CCCC2)NC(=O)[C@@H]2CCCN2C(=O)[C@H](CCc2ccc(C(F)(F)F)c(Cl)c2)NC(=O)CN(C)C(=O)[C@H](CC2CCCCC2)N(C)C(=O)CN(C)C(=O)CN(C)C1=O [Compound 164] ([NMeL][AllylGly][Sar][Sar][NMeCha][Sar][hPhe(3-Cl-4-CF3)]P[Ac5c][NMeChg][NMeD]-Piperidide; lactam N-11) 8.66
